System: Differentiated 3T3-L1 adipocytes
Assay: Glucose uptake assay
Type: cell-based
Details: 3T3-L1 adipocytes, 24 hrs
Recorded Metric: pEC50
Answer as the number alone; pEC50 is minus log10 of concentration in mol/L.

FGF21ΔH-K56-K59R-K69R-K122: FGF21 lysine mutant, SEQ ID NO:21 (protein, listed as Homo sapiens) PIPDSSPLLQFGGQVRQRYLYTDDAQQTEAHLEIREDGTVGGAADQSPESLLQLRALRPGVIQILGVRTSRFLCQRPDGALYGSLHFDPEACSFRELLLEDGYNVYQSEAHGLPLHLPGNKSPHRDPAPRGPARFLPLPGLPPAPLEPPGILAPQPPDVGSSDPLSMVGPSQGRSPSYAS = 8.77

Fill blank: measured pEC50 of the molecule FGF21ΔH-K56R-K59R-K69-K122R: FGF21 lysine mutant, SEQ ID NO:20 (protein, listed as Homo sapiens) PIPDSSPLLQFGGQVRQRYLYTDDAQQTEAHLEIREDGTVGGAADQSPESLLQLRALRPGVIQILGVKTSRFLCQRPDGALYGSLHFDPEACSFRELLLEDGYNVYQSEAHGLPLHLPGNRSPHRDPAPRGPARFLPLPGLPPAPLEPPGILAPQPPDVGSSDPLSMVGPSQGRSPSYAS is ____.
8.28

Same read-out for FGF21ΔH-K56R-K59-K69R-K122R: FGF21 lysine mutant, SEQ ID NO:19 (protein, listed as Homo sapiens) PIPDSSPLLQFGGQVRQRYLYTDDAQQTEAHLEIREDGTVGGAADQSPESLLQLRALKPGVIQILGVRTSRFLCQRPDGALYGSLHFDPEACSFRELLLEDGYNVYQSEAHGLPLHLPGNRSPHRDPAPRGPARFLPLPGLPPAPLEPPGILAPQPPDVGSSDPLSMVGPSQGRSPSYAS ?
9.05
